Several reports have described pIC50 for UniProt:Q05397; a selection of those results is presented here.
Note on pIC50: it is the negative log10 of concentration, concentration in mol/L.

Reference set, count: 5
smiles_record=CNC(=O)c1ccccc1Nc1cc(Nc2cnn(C3CCN(C)CC3)c2)ncc1F measured_number=5.68
smiles_record=CCN(CCOC)C(=O)c1cccc(Nc2ncc(C(F)(F)F)c(NCc3cccnc3N(C)S(C)(=O)=O)n2)c1 measured_number=8.17
smiles_record=Cc1cccc(NS(C)(=O)=O)c1CNc1nc(Nc2ccc(C(N)=O)cc2)ncc1C(F)(F)F measured_number=9.22
smiles_record=CCC(=O)Nc1cccc(Nc2nc(Nc3ccc4c(c3)OCCOCCOCCO4)nc3[nH]cnc23)c1 measured_number=5.95
smiles_record=Cc1cc(Nc2cc(Nc3cccc4c3C(=O)N(C)CC4)c(Cl)cn2)n(C)n1 measured_number=8.15

(Q) Which value of pIC50 has been reported for CONC(=O)c1ccccc1Nc1cc(Nc2c(C)nn(C)c2C)ncc1C(F)(F)F in the records?
(A) 8.30

(Q) // query: CNC(=O)c1cc(C)ccc1Nc1cc(Nc2cn(C)nc2C)ncc1C(F)(F)F
(A) 8.70

(Q) How about this compound: CNC(=O)c1ccccc1Nc1cc(Nc2cnn(CC(=O)N3CCN(C)CC3)c2)ncc1Cl
(A) 7.32

(Q) And CNC(=O)c1nn(C)cc1Nc1cc(Nc2cccc3c2C(=O)N(C)CC3)c(Cl)cn1 ?
(A) 6.04

(Q) CN(c1nccnc1CNc1nc(Nc2ccc(F)c(C(N)=O)c2)ncc1C(F)(F)F)S(C)(=O)=O ?
(A) 7.97

(Q) Would you kindly repeat that for COc1ccc(C(N)=O)cc1Nc1ncc(C(F)(F)F)c(NCc2ccc(C)nc2N(C)S(C)(=O)=O)n1 ?
(A) 9.19

(Q) // query: CN1CCc2cccc(Nc3cc(Nc4cnn(CC(=O)N5CCCC5)c4)ncc3F)c2C1=O
(A) 6.52

(Q) Now the compound CNC(=O)c1ccc(S(C)(=O)=O)cc1Nc1cc(Nc2cn(C)nc2C)ncc1C(F)(F)F
(A) 6.34

====

System: Focal adhesion kinase 1 (Homo sapiens, UniProt Q05397) | Read-out: IC50 | Origin: multiple publications
Mark y only when IC50 stays strictly below 5 nM. Values equal to the cut-off are n.

smiles_record=CN(c1ncccc1CNc1nc(Nc2cccc(C(=O)N3CCC3)c2)ncc1C(F)(F)F)S(C)(=O)=O qualitative_label=y
smiles_record=c1cc(Nc2nc(Nc3ccc4c(c3)OCCOCCOCCO4)nc3[nH]cnc23)c2cc[nH]c2c1 qualitative_label=n

(Q) Quick check: IC50 of CC(C)NC(=O)c1ccc(Nc2ncc(C(F)(F)F)c(NCc3cccnc3N(C)S(C)(=O)=O)n2)cc1 under 5 nM?
(A) y

(Q) Ok, now CN(c1ncccc1CNc1nc(Nc2cccc(CS(N)(=O)=O)c2)ncc1C(F)(F)F)S(C)(=O)=O
(A) y

(Q) Another compound: CNC(=O)c1ccccc1Nc1cc(Nc2cn(C)nc2C)ncc1C#N
(A) n

(Q) What do you have for CCn1cc(Nc2cc(Nc3ccccc3C(=O)NC)c(C(F)(F)F)cn2)cn1 ?
(A) n

(Q) Please do the same for CN(c1cccnc1CNc1nc(Nc2ccc(C(C)(C)O)cc2)ncc1C(F)(F)F)S(C)(=O)=O as well.
(A) y

(Q) Item: CN(c1cccnc1CNc1nc(Nc2cc(C(N)=O)ccc2F)ncc1C(F)(F)F)S(C)(=O)=O
(A) y

(Q) Same read-out for CN(C)CCNC(=O)Cn1cc(Nc2cc(Nc3cccc4c3C(=O)N(C)CC4)c(Cl)cn2)cn1 ?
(A) n

(Q) Request: CNC(=O)c1ccc(F)cc1Nc1cc(Nc2cn(C)nc2C)ncc1C(F)(F)F
(A) n

(Q) Entry to check: CC1CCN(C(=O)c2ccc(Nc3ncc(C(F)(F)F)c(NCc4cccnc4N(C)S(C)(=O)=O)n3)cc2)CC1
(A) y

(Q) Do the same for CN([C@@H]1CCC[C@H]1Oc1nc(Nc2ccc3c(c2)OCCOCCOCCO3)nc2[nH]ncc12)S(C)(=O)=O please
(A) n

(Q) Another compound to check: Cc1nn(C(C)C)cc1Nc1cc(Nc2cccc3c2C(=O)N(C)CC3)c(Cl)cn1
(A) n

(Q) And then CN(c1cccc(CNc2nc(Nc3ccc(C#N)c(O)c3)ncc2C(F)(F)F)c1)S(C)(=O)=O , what is it?
(A) y
